Consider the following binders; for each one, report its interaction score.
- system_tested: T1, 4H850-bA
- T1 chain: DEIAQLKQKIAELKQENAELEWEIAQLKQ
- experimental_details: two-hybrid library CCNG1;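 further: natural log of median RNA to DNA barcode read ratio; higher means stronger binding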
Give bare numbers.

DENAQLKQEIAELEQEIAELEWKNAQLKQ [4H1544-bA]    0.322
DEIAQLKQEIAELKQEIAELEWKNAQLKQ [4H584-bA]    0.521
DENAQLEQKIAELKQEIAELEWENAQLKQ [4H1348-bA]    -0.292
DKNAQLKQEIAELEQKIAELKWENAQLKQ [4H3628-bA]    0.124
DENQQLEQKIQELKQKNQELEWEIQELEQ [4H1393-bN]    -0.881

Items follow; give interaction score for each.
1. DKNAQLKQENAELKQKIAELKWEIAQLEQ [4H3817-bA]
2. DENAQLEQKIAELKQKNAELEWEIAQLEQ [4H1393-bA]

Resp:
1: -0.849; 2: -0.951
